All figures here come from patent US20210045385A1.

Measured Kochia plant response rating (0 to 100 scale) accompanies every entry in the list below.
system: kochia (Bassia scoparia); experiment: Test C preemergence, visual plant response rating; assay type: in vivo; settings: 125 g ai/ha
The answer should be a number; do not append a unit.

With kochia (Bassia scoparia) as the test system, `CON=C(c1ccc(F)c(Br)c1)c1c(O)c(C)nn(C)c1=O` showed Kochia plant response rating (0 to 100 scale) of 0

With kochia (Bassia scoparia) as the test system, `CON=C(c1cc(Cl)cc(Cl)c1F)c1c(O)c(C)nn(C)c1=O` showed Kochia plant response rating (0 to 100 scale) of 90

With kochia (Bassia scoparia) as the test system, `CCO/N=C(\c1cc(Cl)cc(Cl)c1Cl)c1c(O)c(C)nn(C)c1=O` showed Kochia plant response rating (0 to 100 scale) of 0
